System: Serratia marcescens
Experiment: MIC against Gram-negative bacteria: Serratia marcescens
Format: cell-based
Conditions: Serratia marcescens; 96-well plate, 5×10^5 CFU/mL, 37° C., 10 h
Method: 1. Gram-negative bacteria, such as E. coli BL21, Pseudomonas aeruginosa, Klebsiella pneumonia, Enterobacter cloacae, Aeromonas hydrophila, Citrobacter diversus, Moraxella catarrhalis, Proteus mirabilis, Proteus vulgaris, Serratia marcescens, etc were streaked on solid LB medium and cultured respectively. Then, typical clones were picked, inoculated into common liquid LB medium respectively, and cultured at 37° C. with shaking at 185 rpm until the McFarland specific turbidity was 0.5. […]
Entries and their measured MIC (μg/mL) S. marcescens follow.
readout.type: MIC (μg/mL) S. marcescens (µg/mL)

[[record]]
substance = "PRT130 (ITDRCLPSYCEHGGECSQSWDTFSCDCLGTGYTGETCH; listed as Homo sapiens)"
readout_type = "MIC (μg/mL) S. marcescens"
numeric_readout = 12.5

[[record]]
substance = "PRT79 (LPDPCDSNPCPANSYCSNDWDSYSCSCDPGYYGDNC; listed as Homo sapiens)"
readout_type = "MIC (μg/mL) S. marcescens"
numeric_readout = 50

[[record]]
substance = "PRT39 (PVRDCSRNNGGCTRNFKCVSDRQVDSSGCVCPEELKPMKDGSGCY; listed as Homo sapiens)"
readout_type = "MIC (μg/mL) S. marcescens"
numeric_readout = 12.5

[[record]]
substance = "PRT33 (ACELHTFGRTCKERCSGQEGCKSYVFCLPDPYGCSCATGWKGLQCN; listed as Homo sapiens)"
readout_type = "MIC (μg/mL) S. marcescens"
numeric_readout = 12.5

[[record]]
substance = "PRT13 (PARSCAEEPCGAGTCKETEGHVICLCPPGYTGEHCN; listed as Homo sapiens)"
readout_type = "MIC (μg/mL) S. marcescens"
numeric_readout = 12.5

[[record]]
substance = "PRT22 (WCEDNGGCEQICTSRVDGPLCSCVTGTLQEDGKSCR; listed as Homo sapiens)"
readout_type = "MIC (μg/mL) S. marcescens"
numeric_readout = 25

[[record]]
substance = "PRT6 (TRKLCSLDNGDCDQFCHEEQNSVVCSCARGYTLADNGKACI; listed as Homo sapiens)"
readout_type = "MIC (μg/mL) S. marcescens"
numeric_readout = 25

[[record]]
substance = "PRT87 (DACLLNPCQNQGSCRHLPGAPHGYTCDCVGGYFGHHCE; listed as Homo sapiens)"
readout_type = "MIC (μg/mL) S. marcescens"
numeric_readout = 50


* * *

Entries and their measured MIC (μg/mL) K. pneumonia follow.
Test system: Klebsiella pneumonia
Assay: MIC against Gram-negative bacteria: Klebsiella pneumonia
Assay type: cell-based
Details: Klebsiella pneumonia; 96-well plate, 5×10^5 CFU/mL, 37° C., 10 h
readout.type: MIC (μg/mL) K. pneumonia (µg/mL)

[[record]]
substance = "PRT132 (ISDRCLPNYCEHGGECSQSWSTFHCNCTNTGYRGATCH; listed as Homo sapiens)"
measurement_units = "µg/mL"
numeric_readout = 12.5

[[record]]
substance = "PRT19 (CSCDPQGAVRDDCEQMTGLCSCKPGVAGPKCGQCPDGRALGPAGCEA; listed as Homo sapiens)"
measurement_units = "µg/mL"
numeric_readout = 25

[[record]]
substance = "PRT128 (CLPSYCEHGGECSQSWDTFSCDCLGTGYTGETC; listed as Homo sapiens)"
measurement_units = "µg/mL"
numeric_readout = 25

[[record]]
substance = "PRT66 (DDNICLREPCENYMKCVSVLRFDSSAPFLSSTTVLFRPIHPINGLRCRCPPGFTGDYCE; listed as Homo sapiens)"
measurement_units = "µg/mL"
numeric_readout = 12.5

[[record]]
substance = "PRT31 (CDCYPVGSTSRSCAPHSGQCPCRPGALGRQCNSCDSPFAEVTASGC; listed as Homo sapiens)"
measurement_units = "µg/mL"
numeric_readout = 25

[[record]]
substance = "PRT1494 (KALCTPRCMNGGLCVTPGFCICPPGFYGVNCD; listed as Homo sapiens)"
measurement_units = "µg/mL"
numeric_readout = 12.5

[[record]]
substance = "PRT80 (TNVCDLNPCEHQSVCTRKPSAPHGYTCECPPNYLGPYCE; listed as Homo sapiens)"
measurement_units = "µg/mL"
numeric_readout = 25

[[record]]
substance = "PRT16 (EKSPCQPNPCHGAAPCRVLPEGGAQCECPLGREGTFCQ; listed as Homo sapiens)"
measurement_units = "µg/mL"
numeric_readout = 12.5

[[record]]
substance = "PRT92 (VSDLCATGDHDCEQVCISSPGSYTCACHEGFTLNSDGKTCN; listed as Homo sapiens)"
measurement_units = "µg/mL"
numeric_readout = 12.5

[[record]]
substance = "PRT25 (PGVCRNGGTCTDAPNGGFRCQCPAGGAFEGPRCE; listed as Homo sapiens)"
measurement_units = "µg/mL"
numeric_readout = 50

[[record]]
substance = "PRT10 (NCSAQCHNHGVCNHKQECHCHAGWAPPHCA; listed as Homo sapiens)"
measurement_units = "µg/mL"
numeric_readout = 50

[[record]]
substance = "PRT14 (PPKPCDSQPCFHGGTCQDWALGGGFTCSCPAGRGGAVCE; listed as Homo sapiens)"
measurement_units = "µg/mL"
numeric_readout = 12.5

[[record]]
substance = "PRT108 (VKDHCSKHSPCQKGGTCVNMPSGPHCLCPQHLTGNHCQ; listed as Homo sapiens)"
measurement_units = "µg/mL"
numeric_readout = 50

[[record]]
substance = "PRT137 (NPCQGSATCVNTPGERSFLCKCPPGYSGTICE; listed as Homo sapiens)"
measurement_units = "µg/mL"
numeric_readout = 12.5

[[record]]
substance = "PRT34 (ACHPGFYGPDCKLRCSCNNGEMCDRFQGCLCSPGWQGLQCE; listed as Homo sapiens)"
measurement_units = "µg/mL"
numeric_readout = 12.5


* * *

Test system: Aeromonas hydrophila
Test: MIC against Gram-negative bacteria: Aeromonas hydrophila
Assay type: cell-based
Details: Aeromonas hydrophila; 96-well plate, 5×10^5 CFU/mL, 37° C., 10 h
Entries and their measured MIC (μg/mL) A. hydrophila follow.
readout.type: MIC (μg/mL) A. hydrophila (µg/mL)

[[record]]
substance = "PRT138 (PCHNNATCEDSVDNYTCHCWPGYTGAQCE; listed as Homo sapiens)"
target_or_test_system = "Aeromonas hydrophila"
readout_type = "MIC (μg/mL) A. hydrophila"
numeric_readout = 25

[[record]]
substance = "PRT92 (VSDLCATGDHDCEQVCISSPGSYTCACHEGFTLNSDGKTCN; listed as Homo sapiens)"
target_or_test_system = "Aeromonas hydrophila"
readout_type = "MIC (μg/mL) A. hydrophila"
numeric_readout = 25

[[record]]
substance = "PRT109 (ASQACRTNPCLHGGRCLEVEGHRLCHCPVGYTGAFCD; listed as Homo sapiens)"
target_or_test_system = "Aeromonas hydrophila"
readout_type = "MIC (μg/mL) A. hydrophila"
numeric_readout = 12.5

[[record]]
substance = "PRT74 (CDCFPHGSHSRTCDMATGQCACKPGVIGRQCNRCDNPFAEVTTLGCEV; listed as Homo sapiens)"
target_or_test_system = "Aeromonas hydrophila"
readout_type = "MIC (μg/mL) A. hydrophila"
numeric_readout = 12.5


* * *

System: Moraxella catarrhalis
Experiment: MIC against Gram-negative bacteria: Moraxella catarrhalis
Format: cell-based
Settings: Moraxella catarrhalis; 96-well plate, 5×10^5 CFU/mL, 37° C., 10 h
Entries and their measured MIC against M. catarrhalis follow.
readout.type: MIC against M. catarrhalis (µg/mL)

[[record]]
substance = "PRT1260 (DINECLVNNGGCDHFCRNTVGSFECGCRKGYKLLTDERTCQ; listed as Homo sapiens)"
numeric_readout = 50

[[record]]
substance = "PRT1257 (CMNKDHGCAHICRETPKGGVACDCRPGFDLAQNQKDC; listed as Homo sapiens)"
numeric_readout = 12.5

[[record]]
substance = "PRT1287 (EPCRKLYCLHGICQPNATPGPMCHCEAGWVGLHCD; listed as Homo sapiens)"
numeric_readout = 50

[[record]]
substance = "PRT1298 (PINTCIQNPCQHGGTCHLSDSHKDGFSCSCPLGFEGQRCE; listed as Homo sapiens)"
numeric_readout = 12.5

[[record]]
substance = "PRT1292 (NVDDCEDNDCENNSTCVDGINNYTCLCPPEYTGELCE; listed as Homo sapiens)"
numeric_readout = 50

[[record]]
substance = "PRT1319 (SMGDCGPTGLAQHCHLHARCVSQEGVARCRCLDGFEGDGFS; listed as Homo sapiens)"
numeric_readout = 25

[[record]]
substance = "PRT1237 (LGPGCLDNCRGHGDCLREQCICDPGYSGPNCY; listed as Homo sapiens)"
numeric_readout = 50

[[record]]
substance = "PRT1250 (FGARCDRYCQCFRGRCHPVDGTCACEPGYRGKYCR; listed as Homo sapiens)"
numeric_readout = 12.5

[[record]]
substance = "PRT1274 (DVDECAEGNGGCQQSCVNMMGSYECHCREGFFLSDNQ; listed as Homo sapiens)"
numeric_readout = 12.5

[[record]]
substance = "PRT1219 (DHDSCVHGPCQNGGSCLRRLAVSSVLKSRESLPVIIVANEPLQPFLCKCLPGYAGSWCE; listed as Homo sapiens)"
numeric_readout = 25

[[record]]
substance = "PRT1327 (EINPCLENHGGCDKNAECTQTGPNQAACNCLPAYTGDGKVCT; listed as Homo sapiens)"
numeric_readout = 12.5

[[record]]
substance = "PRT1209 (ATEDCASNPCQNGGVCNPSPAGGYYCKCSALYIGTHCE; listed as Homo sapiens)"
numeric_readout = 12.5

[[record]]
substance = "PRT1304 (ARDPCLGHRCHHGKCVATGTSYMCKCAEGYGGDLCD; listed as Homo sapiens)"
numeric_readout = 25

[[record]]
substance = "PRT1249 (NQCACNSSPCEQQSGRCQCRERTFGARCD; listed as Homo sapiens)"
numeric_readout = 12.5

[[record]]
substance = "PRT1253 (WPRQCPCLVDGARYWPGQRIKADCQLCICQDGRPRRCR; listed as Homo sapiens)"
numeric_readout = 12.5

[[record]]
substance = "PRT1332 (FGPSCSSVCNCVHGVCNSGLDGDGTCECYSAYTGPKCD; listed as Homo sapiens)"
numeric_readout = 12.5

